Reported values of Ki for individual entries
target: human V1a receptor (Homo sapiens, UniProt P37288); construct: expressed in transfected cells; host or cells: HEK293 cells, transiently transfected; membranes prepared; experiment: human V1a receptor binding (3H-Vasopressin SPA, membranes of transfected HEK293 cells); conditions: displacement of 4 nM 3H-Vasopressin, HEK293 cell membranes, Ki by Cheng-Prussoff from IC50; read-out: Ki
Sequence (P37288 whole entry): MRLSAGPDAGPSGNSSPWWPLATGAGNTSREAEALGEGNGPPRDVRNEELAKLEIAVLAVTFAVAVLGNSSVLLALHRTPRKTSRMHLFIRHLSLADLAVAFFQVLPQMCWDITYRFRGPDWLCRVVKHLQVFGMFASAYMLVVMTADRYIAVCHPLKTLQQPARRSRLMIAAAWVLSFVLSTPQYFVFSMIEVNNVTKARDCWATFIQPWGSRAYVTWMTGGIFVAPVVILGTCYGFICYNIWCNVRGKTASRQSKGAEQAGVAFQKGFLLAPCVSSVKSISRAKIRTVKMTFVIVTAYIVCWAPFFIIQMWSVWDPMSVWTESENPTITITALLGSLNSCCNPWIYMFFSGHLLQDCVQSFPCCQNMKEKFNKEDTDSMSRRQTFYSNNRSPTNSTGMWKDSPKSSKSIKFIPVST
VALUE TYPE: Ki (nM)

>>> print(df.to_string())
                             compound_smiles  value_type  units_label  numeric_readout
 0  CN(C)C(=O)Cn1cc(C(=O)N2CCC(c3ccccc3F)CC2)c2ccc(Cl)cc21          Ki           nM                3
 1  CN1CCN(C(=O)Cn2cc(C(=O)N3CCC(c4ccccc4OC(F)(F)F)CC3)c3ccc(Cl)cc32)CC1          Ki           nM                7
 2  CN1CCN(C(=O)Cn2cc(C(=O)N3CCC(c4ccccc4C(F)(F)F)CC3)c3ccc(Cl)cc32)CC1          Ki           nM                6
 3  COc1cccc(OC)c1C1CCN(C(=O)c2cn(CC(=O)N3CCN(C)CC3)c3cc(Cl)ccc23)CC1          Ki           nM                2
 4  NC(=O)Cn1cc(C(=O)N2CCN(c3ccccc3F)CC2)c2ccc(Cl)cc21          Ki           nM               32
 5  O=C(Cn1cc(C(=O)N2CCN(c3ccccc3F)CC2)c2ccc(Cl)cc21)N1CCNCC1          Ki           nM                8
 6  COc1cccc(OC)c1C1CCN(C(=O)c2cn(Cc3ccnc(C)c3)c3cc(Cl)ccc23)CC1          Ki           nM                2
 7  CN(C)C(=O)Cn1cc(C(=O)N2CCC(c3ccccc3C(F)(F)F)CC2)c2ccc(Cl)cc21          Ki           nM                7
 8  CCOc1ccccc1N1CCN(C(=O)c2cn(CC(=O)N(C)C)c3cc(Cl)ccc23)CC1          Ki           nM               14
 9  CC(C)Oc1ccccc1C1CCN(C(=O)c2cn(CC(=O)N3CCN(C)CC3)c3cc(Cl)ccc23)CC1          Ki           nM                5
10  CNC(=O)Cn1cc(C(=O)N2CCC(c3ccccc3F)CC2)c2ccc(Cl)cc21          Ki           nM                7
11  CN(C)CCn1cc(C(=O)N2CCN(c3ccccc3F)CC2)c2ccc(Cl)cc21          Ki           nM                7
12  CN(C)C(=O)Cn1cc(C(=O)N2CCN(c3ccccc3F)CC2)c2ccc(Cl)cc21          Ki           nM                3
13  COc1cccc(OC)c1C1CCN(C(=O)c2cn(CC(=O)OC(C)(C)C)c3cc(Cl)ccc23)CC1          Ki           nM                3
14  COc1ccccc1N1CCN(C(=O)c2cn(CCN(C)C)c3cc(Cl)ccc23)CC1          Ki           nM               22
15  CC(C)Oc1ccccc1C1CCN(C(=O)c2cn(CC(=O)N(C)C)c3cc(Cl)ccc23)CC1          Ki           nM                4
